Origin of values: ChEMBL document CHEMBL1129309

Would you mind telling me the reported pKi of each entry?
target: Kappa-type opioid receptor (Cavia porcellus); assay: Activity was evaluated by inhibition of the binding of 1 nM [3H]U-69593 at Opioid receptor kappa 1 binding site
Sequence (P41144 whole entry): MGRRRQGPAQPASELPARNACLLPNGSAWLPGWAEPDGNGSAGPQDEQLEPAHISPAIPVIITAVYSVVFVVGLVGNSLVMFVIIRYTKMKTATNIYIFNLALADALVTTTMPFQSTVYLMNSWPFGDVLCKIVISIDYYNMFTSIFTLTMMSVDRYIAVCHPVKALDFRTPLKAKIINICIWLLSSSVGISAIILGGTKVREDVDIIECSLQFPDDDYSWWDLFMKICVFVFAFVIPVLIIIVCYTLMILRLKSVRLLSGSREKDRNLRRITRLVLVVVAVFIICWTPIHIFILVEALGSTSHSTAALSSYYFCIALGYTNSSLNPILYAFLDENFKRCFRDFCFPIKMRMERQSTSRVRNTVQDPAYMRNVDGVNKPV
One number for each entry, as −log10 of the molar value.

Some compounds with known pKi results, for comparison:
Problem: Output pKi of CN1CNC2CCC3(C)CC2(Cc2ccc(O)cc23)C1 (stereo not given)
Result: 7.76

Problem: Output pKi of CNCC12Cc3ccc(O)cc3C(C)(CCC1N)C2 (stereo not given)
Result: 7.29

Problem: Output pKi of COCC12Cc3ccc(O)cc3C(C)(CCC1N(C)C)C2 (single isomer, unassigned; (-))
Result: 7.22

Problem: Output pKi of CNC1CCC2(C)CC1(CO)Cc1ccc(O)cc12 (single isomer, unassigned; (+))
Result: 6.36

We now examine a further compound.
Problem: Output pKi of CN(C)C1CCC2(C)CC1(C)Cc1ccc(O)cc12 (single isomer, unassigned; (-))
Result: 6.39
